# target: recombinant KEAP1-Kelch domain (Homo sapiens, UniProt Q14145)
# Sequence (Q14145 312-624): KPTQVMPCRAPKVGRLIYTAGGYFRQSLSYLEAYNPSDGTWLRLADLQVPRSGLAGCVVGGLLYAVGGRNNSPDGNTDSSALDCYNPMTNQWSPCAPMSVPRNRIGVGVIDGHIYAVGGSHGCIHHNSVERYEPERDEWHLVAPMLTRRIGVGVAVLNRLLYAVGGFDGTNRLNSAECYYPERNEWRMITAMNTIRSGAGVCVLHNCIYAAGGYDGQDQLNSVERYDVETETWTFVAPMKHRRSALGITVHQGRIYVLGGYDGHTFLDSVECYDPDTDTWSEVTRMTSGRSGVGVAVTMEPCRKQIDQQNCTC
# measurementNotes: biochemical
pIC50: −log10 of the molar value.
resultType: pIC50

molecule="Cc1ccc(C(CC(=O)O)c2cc(OCCOCCOCCNc3cccc4c3C(=O)N(C3CCC(=O)NC3=O)C4=O)c3c(c2)nnn3C)cc1CN1C[C@@H](C)Oc2ccccc2S1(=O)=O (some centres unmarked)" resulttype=pIC50 quantitativereadout=6.92
molecule="Cc1ccc(C(CC(=O)O)c2cc(OCCNc3cccc4c3C(=O)N(C3CCC(=O)NC3=O)C4=O)c3c(c2)nnn3C)cc1CN1C[C@@H](C)Oc2ccccc2S1(=O)=O (some centres unmarked)" resulttype=pIC50 quantitativereadout=6.82
molecule="Cc1ccc(C(CC(=O)O)c2cc(OCCOCCOCCNC(=O)COc3cccc4c3C(=O)N(C3CCC(=O)NC3=O)C4=O)c3c(c2)nnn3C)cc1CN1C[C@@H](C)Oc2ccccc2S1(=O)=O (some centres unmarked)" resulttype=pIC50 quantitativereadout=6.25

(a) Cc1ccc(C(CC(=O)O)c2cc(OCCCCCCNC(=O)COc3cccc4c3C(=O)N(C3CCC(=O)NC3=O)C4=O)c3c(c2)nnn3C)cc1CN1C[C@@H](C)Oc2ccccc2S1(=O)=O (some centres unmarked)
(b) Cc1ccc(C(CC(=O)O)c2cc(OCCCCNC(=O)COc3cccc4c3C(=O)N(C3CCC(=O)NC3=O)C4=O)c3c(c2)nnn3C)cc1CN1C[C@@H](C)Oc2ccccc2S1(=O)=O (some centres unmarked)
Hi! Which is lower in terms of pIC50, the first one a or the second one b ? Kindly give the label for the entry you pick.
a

The origin of these recorded values is paper PMC9720105.
